tested on: adult A. aegypti female mosquitoes; assay: Adult mosquito topical toxicity assay; assay type: in vivo; details: topical, 3.12 μg per insect; acetone/DMSO control gave 5.8±1.8%
# Adult mosquito mortality rate ± SD values compiled below
Please reply with the bare figure in % and do not write the unit itself.

CC(C)(O)C(O)Cc1c(O)cc(/C=C/c2ccccc2)cc1O (stereo not drawn) [Compound 9, arahypin-4]    10
CC(C)=CCc1c(O)cc(/C=C/c2ccccc2)cc1O [Compound 5, chiricanine A]    6.7

Let's switch to this molecule now.
Data request: Lab request: please report Adult mosquito mortality rate ± SD under test system adult A. aegypti female mosquitoes for CC1(C)C=Cc2c(O)cc(/C=C/c3ccc(O)cc3)cc2O1 [Compound 10, arahypin-5]
Data returned: 5.8

* * *

assay: Cytotoxicity towards HL-60 cells in the antioxidant assay; type: cell-based; details: human, HL-60 promyelocytic leukemia cells
The label is 1 (yes) for IC50 below 8 µg/mL and 0 (no) for IC50 equal to or exceeding 8 µg/mL.

Examples with answers:
COc1cc(/C=C/c2ccc(O)cc2)cc(OC)c1    0 (no)
CC(C)/C=C/c1c(O)cc(/C=C/c2ccccc2)cc1O    0 (no)
Oc1cccc(CCc2ccccc2)c1    0 (no)
COc1ccc(/C=C/c2cc(O)cc(O[C@@H]3O[C@H](CO)[C@@H](O)[C@H](O)[C@H]3O)c2)cc1O [Compound 23, rhapontin, reference compound]    0 (no)

Read the next record carefully.
Data request: # check: IC50 < 8 µg/mL for COc1cccc2c1C(=O)c1c(O)c3c(c(O)c1C2=O)C[C@@](O)(C(=O)CO)C[C@@H]3O[C@H]1C[C@H](N)[C@H](O)[C@H](C)O1 [Doxorubicin, reference compound]
Data returned: 1 (yes)

* * *

# IC50 values compiled below
experiment: Cytotoxicity; format: cell-based; settings: African green monkey, Vero kidney fibroblasts

COc1cccc(/C=C/c2ccc(O)cc2)c1 [Compound 13]    > 25 µg/mL
CC(C)/C=C/c1c(O)cc(/C=C/c2ccccc2)cc1O [Compound 6, arahypin-1]    > 25 µg/mL
COc1cc(/C=C/c2ccc(O)cc2)cc(OC)c1 [Compound 21, pterostilbene]    > 25 µg/mL
COc1ccc(/C=C/c2cc(O)cc(O[C@@H]3O[C@H](CO)[C@@H](O)[C@H](O)[C@H]3O)c2)cc1O [Compound 23, rhapontin, reference compound]    > 25 µg/mL
CC(C)/C=C/c1c(O)cc(/C=C/c2ccc(O)cc2)cc1O [Compound 3, arachidin-3]    > 25 µg/mL

Data request: Bench note: what IC50 did CC(C)=CCC/C(C)=C/Cc1c(O)cc(/C=C/c2ccc(O)cc2O)cc1O [Compound 22, chlorophorin] show?
Data returned: 15.5 µg/mL

Data request: Bench note: what IC50 did CC(C)/C=C/c1c(O)cc(/C=C/c2ccc(O)c(O)c2)cc1O [Compound 1, arachidin-1] show?
Data returned: 12 µg/mL

Data request: Bench note: what IC50 did Oc1cccc(/C=C/c2ccccc2)c1 [Compound 14] show?
Data returned: > 25 µg/mL

* * *

test system: Phomopsis viticola; test: Antifungal broth dilution microbioassay, Phomopsis viticola; type: cell-based; settings: 144 h of incubation
Assay Readout: Antifungal activity against P. viticola

CC(C)=CCc1c(O)cc(/C=C/c2ccccc2)cc1O    more fungicidal
CC(C)/C=C/c1c(O)cc(/C=C/c2ccccc2)cc1O    more fungicidal
CC1(C)C=Cc2c(O)cc(/C=C/c3ccc(O)cc3)cc2O1    more fungicidal

* * *

test: Cytotoxicity; type: cell-based; settings: human, KB oral epidermal carcinoma cells
# IC50 values compiled below

Before answering, review these 8 worked examples.
CC(C)/C=C/c1c(O)cc(/C=C/c2ccc(O)cc2)cc1O    > 25 mg/L
CC(C)(O)C(O)Cc1c(O)cc(/C=C/c2ccccc2)cc1O (stereo not drawn)    > 25 mg/L
CC(C)(O)C(O)Cc1cc(/C=C/c2cc(O)cc(O)c2)ccc1O (stereo not drawn)    > 25 mg/L
Oc1cccc(CCc2ccccc2)c1    > 25 mg/L
COc1cccc2c1C(=O)c1c(O)c3c(c(O)c1C2=O)C[C@@](O)(C(=O)CO)C[C@@H]3O[C@H]1C[C@H](N)[C@H](O)[C@H](C)O1 [Doxorubicin, reference compound]    1.45 mg/L
COc1cc(/C=C/c2ccc(O)cc2)cc(OC)c1    > 25 mg/L
CC(C)=CCc1c(O)cc(/C=C/c2ccccc2)cc1O    > 25 mg/L
COc1ccc(/C=C/c2cc(O)cc(O[C@@H]3O[C@H](CO)[C@@H](O)[C@H](O)[C@H]3O)c2)cc1O [Compound 23, rhapontin, reference compound]    > 25 mg/L

Data request: Bench note: what IC50 did CC1(C)C=Cc2c(O)cc(/C=C/c3ccc(O)cc3)cc2O1 show?
Data returned: > 25 mg/L

Data request: Bench note: what IC50 did CC(C)/C=C/c1c(O)cc(/C=C/c2ccccc2)cc1O show?
Data returned: > 25 mg/L

Data request: Bench note: what IC50 did COc1cc(O)cc(/C=C/c2ccccc2)c1 show?
Data returned: > 25 mg/L

* * *

tested on: Phomopsis viticola; assay: Antifungal broth dilution microbioassay, Phomopsis viticola; assay type: cell-based; settings: at the highest concentrations, Figure 2D
Assay Readout: Antifungal activity against P. viticola

Before answering, review these 5 worked examples.
Oc1ccc(/C=C/c2ccccc2)cc1O    essentially inactive
COc1cc(O)cc(/C=C/c2ccccc2)c1    appreciable activity
Oc1cccc(CCc2ccccc2)c1    appreciable activity
CC(C)=CCC/C(C)=C/Cc1c(O)cc(/C=C/c2ccc(O)cc2O)cc1O    appreciable activity
Oc1cc(O)cc(/C=C/c2ccccc2)c1    essentially inactive

Data request: Bench note: what Antifungal activity against P. viticola did Oc1ccc(/C=C/c2cc(O)cc(O)c2)cc1 [Compound 24, resveratrol, reference compound] show?
Data returned: essentially inactive

Data request: Bench note: what Antifungal activity against P. viticola did COc1cccc(/C=C/c2ccc(O)cc2)c1 show?
Data returned: appreciable activity

* * *

experiment: Cytotoxicity to RAW 264.7 cells in the iNOS assay; format: cell-based, mouse; conditions: mouse, RAW 264.7 macrophages
# IC50 values compiled below

Before answering, review these 6 worked examples.
COc1cc(/C=C/c2ccc(O)cc2)cc(OC)c1    > 25 µg/mL
COc1cccc(/C=C/c2ccc(O)cc2)c1    19.5 µg/mL
Oc1ccc(/C=C/c2cccc(O)c2)cc1 [Compound 15, trans-3,4′-dihydroxystilbene]    > 25 µg/mL
C=C1C(=O)O[C@H]2[C@H]1CC/C(C)=C/CC[C@@]1(C)O[C@@H]21 [Parthenolide, reference compound]    13.5 µg/mL
COc1cc(O)cc(/C=C/c2ccccc2)c1    12 µg/mL
CC(C)/C=C/c1c(O)cc(/C=C/C2=CC(=O)OC2CC(=O)O)cc1O (centres unmarked)    > 25 µg/mL

Data request: Bench note: what IC50 did CC(C)/C=C/c1c(O)cc(/C=C/c2ccc(O)cc2)cc1O show?
Data returned: > 25 µg/mL

Data request: Bench note: what IC50 did CC(C)=CCc1c(O)cc(/C=C/c2ccc(O)cc2)cc1O show?
Data returned: > 25 µg/mL

* * *

test: Cytotoxicity; format: cell-based; details: human, SK-MEL malignant melanoma cells
# IC50 values compiled below

Before answering, review these 4 worked examples.
Oc1cc(O)cc(/C=C/c2ccccc2)c1    12.5 µg/mL
CC(C)/C=C/c1c(O)cc(/C=C/c2ccc(O)c(O)c2)cc1O    15 µg/mL
COc1cc(O)cc(/C=C/c2ccccc2)c1    > 25 µg/mL
CC(C)=CCc1c(O)cc(/C=C/c2ccccc2)cc1O    20 µg/mL

Data request: Bench note: what IC50 did Oc1cccc(/C=C/c2ccccc2)c1 show?
Data returned: > 25 µg/mL

* * *

assay: Cytotoxicity; assay type: cell-based; conditions: human, SK-MEL malignant melanoma cells
Assay Readout: IC50

CC(C)/C=C/c1c(O)cc(/C=C/C2=CC(=O)OC2CC(=O)O)cc1O (stereo not shown) [Compound 4, SB-1]    > 25 µg/mL

Let's switch to this compound now.
Data request: Bench note: what IC50 did COc1cc(/C=C/c2ccccc2)cc(OC)c1 [Compound 18] show?
Data returned: > 25 µg/mL

* * *

experiment: Cytotoxicity; type: cell-based; conditions: African green monkey, Vero kidney fibroblasts
# IC50 values compiled below

CC(C)(O)C(O)Cc1c(O)cc(/C=C/c2ccccc2)cc1O (stereo not shown)    > 25 mg/L
CC(C)/C=C/c1c(O)cc(/C=C/C2=CC(=O)OC2CC(=O)O)cc1O (stereo not shown)    > 25 mg/L
Oc1ccc(/C=C/c2ccccc2)cc1O    > 25 mg/L
CC(C)(O)C(O)Cc1c(O)cc(/C=C/c2ccc(O)cc2)cc1O (stereo not shown)    > 25 mg/L
Oc1ccc(/C=C/c2cc(O)cc(O)c2)cc1 [Compound 24, resveratrol, reference compound]    > 25 mg/L
CC(C)=CCc1c(O)cc(/C=C/c2ccccc2)cc1O    > 25 mg/L
Oc1cc(O)cc(/C=C/c2ccccc2)c1    13 mg/L
COc1cc(O)cc(/C=C/c2ccccc2)c1    > 25 mg/L

Data request: Bench note: what IC50 did CC(C)(O)C(O)Cc1cc(/C=C/c2cc(O)cc(O)c2)ccc1O (stereo not shown) show?
Data returned: > 25 mg/L

Data request: Bench note: what IC50 did CC(C)=CCc1c(O)cc(/C=C/c2ccc(O)cc2)cc1O show?
Data returned: 13.5 mg/L

Data request: Bench note: what IC50 did COc1cccc(CCc2ccc(O)cc2)c1 show?
Data returned: > 25 mg/L

Data request: Bench note: what IC50 did CC1(C)C=Cc2c(O)cc(/C=C/c3ccc(O)cc3)cc2O1 show?
Data returned: > 25 mg/L
